Test system: PAD
Experiment: qHTS profiling for inhibitors of Plasmodium falciparum proliferation (AID 504749); note: nearly all actives have a fitted effect of over 60% in size; note: potency is the fitted concentration of half-maximal effect
Conditions: P. falciparum in erythrocytes, SYBR Green DNA, 72 h; series mostly up to 28.7 µM
Experimental: NIH National Institute of Allergy and Infectious Diseases [NIAID] NIH Chemical Genomics Center [NCGC] […] Because mature erythrocytes lack DNA, only Plasmodium-derived DNA is detected. NCGC Assay Protocol Summary: The SYBR Green viability assay was adapted from a method described previously (Plouffe et al., 2008). […] The following morning, fluorescence intensity at 485(14) nm excitation and 535(25) nm emission wavelengths was measured on an EnVision (Perkin Elmer) plate reader. […]
Inconclusive results are not listed. Active and inactive are the calls of the source. Calls come from the whole dose curve; as a rule, active = well fitted inhibition curve with a large enough effect; inconclusive = small, poorly fitted or top-dose-only effect; inactive = flat fitted curve, though single readings scatter.

- compound: "CC1OC(OC2C(O)CC(OC3C(O)CC(OC4CCC5(C)C(CCC6C5CCC5(C)C(C7=CC(=O)OC7)CCC65O)C4)OC3C)OC2C)CC(O)C1O (stereo not drawn)"
  Potency: "inactive"
- compound: "CN1[C@@H]2CC[C@@H]1CC(OC(=O)[C@H](CO)c1ccccc1)C2 (stereo partly drawn)"
  Potency: "inactive"
- compound: "CC(=O)C1(O)Cc2c(O)c3c(c(O)c2C(OC2CC(N)C(O)C(C)O2)C1)C(=O)c1c(O)cccc1C3=O (stereo not drawn)"
  Potency: "10000 nM (active)"
- compound: "CCN(CC)C(=O)[C@@]1(c2ccccc2)C[C@@H]1CN"
  Potency: "inactive"
- compound: "C[C@@H]1CCN(C(=O)[C@H](CCCNC(=N)N)NS(=O)(=O)c2cccc3c2NC[C@H](C)C3)[C@@H](C(=O)O)C1"
  Potency: "inactive"
- compound: "CC(=O)N[C@H]1[C@H](O[C@@H]2c3ccc(c(Cl)c3)Oc3cc4cc(c3O[C@@H]3O[C@H](CO)[C@@H](O)[C@H](O)C3C)Oc3ccc(cc3Cl)C[C@H]3NC(=O)[C@@H](N)c5ccc(O)c(c5)Oc5cc(O)cc(c5)[C@H](NC3=O)C(=O)N[C@H]4C(=O)N[C@H]3C(=O)N[C@@H]2C(=O)N[C@@H](C(=O)O)c2cc(O)cc(O[C@H]4O[C@H](CO)[C@@H](O)C(O)[C@@H]4O)c2-c2cc3ccc2O)O[C@H](CO)[C@@H](O)[C@@H]1O (stereo partly drawn)"
  Potency: "inactive"
- compound: "CC[C@@]1(O)C[C@H](O[C@H]2C[C@@H](N(C)C)[C@@H](O[C@H]3C[C@@H](O)[C@@H](O[C@H]4CCC(=O)[C@@H](C)O4)[C@@H](C)O3)[C@@H](C)O2)c2c(cc3c(c2O)C(=O)c2c(O)cccc2C3=O)[C@H]1C(=O)OC"
  Potency: "178 nM (active)"
- compound: "CC[C@@H](C)C(N)C(=O)O (stereo partly drawn)"
  Potency: "inactive"
- compound: "CC12C=CC(=O)C=C1[C@@H](F)CC1C2C(O)CC2(C)C1CC[C@]2(O)C(=O)CO (stereo partly drawn)"
  Potency: "inactive"
- compound: "CC1CN(c2c(F)c(N)c3c(=O)c(C(=O)O)cn(C4CC4)c3c2F)CC(C)N1 (stereo not drawn)"
  Potency: "inactive"
- compound: "OCC(O)C(O)C(O)C(O)CO (stereo not drawn)"
  Potency: "inactive"
- compound: "COc1ccc(C(=O)/C(Br)=C/C(=O)O)cc1"
  Potency: "inactive"
- compound: "CNC1CCc2cc(OC)c(OC)c(OC)c2-c2ccc(OC)c(=O)cc21 (stereo not drawn)"
  Potency: "inactive"
- compound: "CC1(C(=O)O)CCC2(C)CCC3(C)C(=CC(=O)C4C5(C)CCC(O)C(C)(C)C5CCC43C)C2C1 (stereo not drawn)"
  Potency: "inactive"
- compound: "CC(=O)NC1[C@H](O)C[C@@](O)(C(=O)O)O[C@H]1[C@H](O)[C@H](O)CO (stereo partly drawn)"
  Potency: "inactive"
- compound: "CO[C@H]1C[C@@H]2CC[C@@H](C)[C@@](O)(O2)C(=O)C(=O)N2CCCC[C@H]2C(=O)O[C@H]([C@H](C)C[C@@H]2CC[C@@H](O)[C@H](OC)C2)CC(=O)[C@H](C)/C=C(\\C)[C@@H](O)[C@@H](OC)C(=O)[C@H](C)C[C@H](C)/C=C/C=C/C=C/1C"
  Potency: "1000 nM (active)"
- compound: "CCOC(=O)C(CCc1ccccc1)NC(C)C(=O)N1Cc2cc(OC)c(OC)cc2CC1C(=O)O (stereo not drawn)"
  Potency: "4470 nM (active)"
- compound: "C[C@@H]1CC2C3CCC4=CC(=O)C=C[C@]4(C)[C@@]3(F)[C@@H](O)C[C@]2(C)[C@@]1(O)C(=O)COC(=O)c1cccc(S(=O)(=O)O)c1 (stereo partly drawn)"
  Potency: "inactive"
- compound: "CC[C@H]1OC(=O)[C@H](C)C(=O)[C@H](C)[C@@H](OC2O[C@H](C)C[C@H](N(C)C)[C@@H]2O)[C@@](C)(OC)C[C@@H](C)C(=O)[C@@H](C)C2N(CCCCn3cnc(-c4cccnc4)c3)C(=O)O[C@@]21C (stereo partly drawn)"
  Potency: "11200 nM (active)"
- compound: "C[n+]1c2cc(N)ccc2cc2ccc(N)cc21"
  Potency: "1000 nM (active)"
- compound: "C[C@H](O)[C@@H]1C(=O)N2C(C(=O)O)=C(SCCN=CN)C[C@@H]12"
  Potency: "inactive"
- compound: "CC[C@@H]1/C=C(\\C)C[C@H](C)C[C@H](OC)[C@H]2O[C@@](O)(C(=O)C(=O)N3CCCC[C@H]3C(=O)O[C@H](/C(C)=C/[C@@H]3CC[C@H](Cl)[C@H](OC)C3)[C@H](C)[C@@H](O)CC1=O)[C@H](C)C[C@@H]2OC"
  Potency: "inactive"
- compound: "Nc1nc(/C(=C/CC(=O)O)C(=O)NC2C(=O)N3C(C(=O)O)=CCSC23)cs1 (stereo not drawn)"
  Potency: "inactive"
- compound: "CC1OC(OC2CCC3(C)C(CCC4C3CC(O)C3(C)C(C5=CC(=O)OC5)CCC43O)C2)CC(O)C1OC1CC(O)C(OC2CC(O)C(OC3OC(CO)C(O)C(O)C3O)C(C)O2)C(C)O1 (stereo not drawn)"
  Potency: "inactive"
- compound: "C#C[C@]1(O)CC[C@H]2[C@H]3[C@H](CC[C@@]21C)C1=C(CC(=O)CC1)C[C@@H]3C"
  Potency: "inactive"
- compound: "CCN(CC)C(=O)Nc1ccc(OC[C@H](O)CNC(C)(C)C)c(C(C)=O)c1"
  Potency: "inactive"
- compound: "OCC1OC(O)C(O)C(O)C1O (stereo not drawn)"
  Potency: "inactive"
- compound: "C/C(=C(/CCO)SS/C(CCO)=C(\\C)N(C=O)Cc1cnc(C)nc1N)N(C=O)Cc1cnc(C)nc1N"
  Potency: "inactive"
